Biological target: T1, Human LRP6-Fc (R&D Systems), recombinant human LRP6 containing the complete extracellular domain (human, UniProt O75581 20-1370)
T1 construct: Bought protein; also called hLRP6; Fc-antigen; not shown: Fc part of the bought fusion protein
T1 sequence: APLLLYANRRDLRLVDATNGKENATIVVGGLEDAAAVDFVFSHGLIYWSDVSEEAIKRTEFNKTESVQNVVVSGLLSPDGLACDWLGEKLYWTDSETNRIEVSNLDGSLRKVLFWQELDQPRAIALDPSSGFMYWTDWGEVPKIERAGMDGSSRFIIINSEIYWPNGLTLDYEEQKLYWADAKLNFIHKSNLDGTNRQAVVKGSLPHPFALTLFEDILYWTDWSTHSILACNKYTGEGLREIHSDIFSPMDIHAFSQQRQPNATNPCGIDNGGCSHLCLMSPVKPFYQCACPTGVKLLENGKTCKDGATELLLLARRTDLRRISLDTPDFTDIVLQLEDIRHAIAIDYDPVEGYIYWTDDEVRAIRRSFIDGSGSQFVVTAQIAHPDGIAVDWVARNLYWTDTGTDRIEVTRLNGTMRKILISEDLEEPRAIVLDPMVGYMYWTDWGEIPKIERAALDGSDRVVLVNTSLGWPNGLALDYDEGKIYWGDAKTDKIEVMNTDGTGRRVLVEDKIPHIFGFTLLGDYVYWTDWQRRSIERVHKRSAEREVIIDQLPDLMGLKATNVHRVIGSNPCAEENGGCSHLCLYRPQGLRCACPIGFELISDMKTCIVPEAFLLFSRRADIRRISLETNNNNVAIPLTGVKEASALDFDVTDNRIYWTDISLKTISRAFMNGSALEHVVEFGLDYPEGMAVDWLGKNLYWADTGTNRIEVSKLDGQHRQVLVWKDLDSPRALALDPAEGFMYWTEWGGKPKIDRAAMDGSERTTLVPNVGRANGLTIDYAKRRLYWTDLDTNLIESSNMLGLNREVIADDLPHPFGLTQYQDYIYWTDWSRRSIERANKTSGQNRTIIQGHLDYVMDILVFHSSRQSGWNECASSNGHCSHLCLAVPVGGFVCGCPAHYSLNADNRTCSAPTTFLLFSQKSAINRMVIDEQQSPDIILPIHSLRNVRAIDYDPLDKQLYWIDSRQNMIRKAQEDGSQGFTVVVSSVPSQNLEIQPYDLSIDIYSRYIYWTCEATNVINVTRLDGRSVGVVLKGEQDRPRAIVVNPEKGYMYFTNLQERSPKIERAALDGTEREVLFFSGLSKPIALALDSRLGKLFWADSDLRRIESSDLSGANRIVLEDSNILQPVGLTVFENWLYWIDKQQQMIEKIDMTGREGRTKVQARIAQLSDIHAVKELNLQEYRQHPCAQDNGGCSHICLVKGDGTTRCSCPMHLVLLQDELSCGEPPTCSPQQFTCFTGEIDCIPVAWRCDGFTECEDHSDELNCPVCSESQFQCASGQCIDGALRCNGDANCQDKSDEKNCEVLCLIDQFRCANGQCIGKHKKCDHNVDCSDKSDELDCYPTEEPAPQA
Assay: SPR (BIAcore), mAb captured on anti-mouse chip, Fc-antigen injected, 1:1 model
Hi there, I'd appreciate the recorded kon for every entry that follows.
Give bare numbers, in M⁻¹ s⁻¹.

- binder: "anti-LRP6 monoclonal antibody 931.1 (antibody, V domains shown, Murine hybridoma mAb, protein G purified; also called VH13/VL13) VH: DVNLVESGGGLVKLGGSLKLSCAASGFTFSSFYMSWVRQTPEKRLDLVATINTNGGSTYYSDTVKGRFTISRDNAKNTLYLQMNSLKSEDTALFYCVRQPYYGGTMDYWGQGTSVTVSS VL: DIVLTQSPATLSVTPGDRVSLSCRASQSINNNLHWYQQKSHESPRLLIKYASQSISGIPSRFSGSGSGTDFTLSINSVETEDFGMYFCQQTNNWPLTFGAGTKLEL"
  units-of-measure: "M⁻¹ s⁻¹"
  kon: 56300

Parameter requested: kon. Apply to each item below.
1. anti-LRP6 monoclonal antibody 1213.2 (antibody, V domains shown, Murine hybridoma mAb, protein G purified; also called VH17/VL17) VH: DVNLVESGGGLVKLGGSLKLSCAASGFTFSSFYMSWVRQTPEKRLDLVATINTNGGSTYYSDTVKGRFTISRDNAKNTLYLQMNSLKSEDTALFYCVRQPYYGGTMDYWGQGTSVTVSS VL: DIVLTQSPATLSVTPGDRVSLSCRASQSINNNLHWYQQKSHESPRLLIKYASQSISGIPSRFSGSGSGTDFTLSINSVETEDFGMYFCQQTNNWPLTFGAGTKLEL
2. anti-LRP6 monoclonal antibody 135.16 (antibody, V domains shown, Murine hybridoma mAb, protein G purified; also called mAb135.16) VH: QVQLQQSGAELVKPGASVKMSCKAFGYTFTSYPIEWMKQNHGKSLEWIGNFHPYNDNTKYNEKFKGKAKLTVEKSSSTVYLELSRSTSDDSAVYYCARGYSGNYFSAMDYWGQGTSVTVSS VL: DIVMTQSQKFMSTSVGDRVSITCKASQNVRNDVAWYQQKPGQSPKSLIYLASNRHTGVPDRFTGSGSGTDFTLTISNVQSEDLADYFCLQHWNYPYTFGGGTKLEIKR

1: 58800; 2: 26300
